test system: PC-3; assay: Cell growth inhibition, resazurin, 48 h; conditions: Homo sapiens, PC-3, 48 h
pEC50: −log10 of the molar value.

COMPOUND	pEC50
CC[C@H]1C(=O)N[C@@]2([C@@H](O)[C@@H]3C=CCCC3)C(=O)O[C@@]12C [Formula II-17]	< 4.70

====

tested on: Jurkat; assay: Cytotoxicity against Jurkat cells; type: cell-based, human; conditions: Homo sapiens, Jurkat
pEC50: −log10 of the molar value.

COMPOUND	pEC50
C[C@@]12OC(=O)[C@]1([C@@H](O)[C@@H]1C=CCCC1)NC(=O)[C@@H]2CCCl [Formula II-16, Salinosporamide A]	8.00

The origin of these recorded values is patent US7572606B1.
